- Tested on: SNB-19 CNS
- Protocol Description: NCI-60 one-dose screen, 48 h (100 = growth as untreated, 0 = no growth, -100 = all killed)
- Setup Conditions: 10 µM unless noted
About 83,000 compounds went through this panel and 20% of them were active in at least one assay; those are over-represented in the sample as a whole. Active and inactive are the calls of the source. The calls were made as follows: active = growth percent below 10; inactive = the rest.
Quick list: growth per entry.

Compound	growth
C=CCN1C(=O)C(CC)(CCC(C)C)C(=O)NC1=S (stereo not given)	100% (inactive)
CCOC(=O)/C(C#N)=C/c1ccc(N(CCCl)CCCl)cc1	106% (inactive)
CO[C@@H]1[C@H](OC(=O)NC(=O)CCl)CC[C@]2(CO2)[C@H]1[C@@]1(C)O[C@@H]1CC=C(C)C	48.6% (inactive)
Oc1c(Br)cc(Br)cc1Br.[Cu+2]	118% (inactive)
CC[C@H](C)[C@H](NC(=O)Nc1ccccc1)C(=O)N(C)[C@H](C[C@@H](OC(C)=O)c1nc(C(=O)N[C@@H](Cc2ccccc2)C[C@H](C)C(=O)OC)cs1)C(C)C	45% (inactive)
Fc1ccc(C2=NN(c3ccccc3)C(c3sc(N(CCCl)CCCl)nc3Cl)C2)cc1 (stereo not given)	95.6% (inactive)
COc1cc(CNCCc2ccc(Cl)cc2)cc(OC)c1O	75.6% (inactive)
C/C(=N/OC(=O)N(C)C)c1cc(Cl)ccc1Cl	101% (inactive)
CC(C)Nc1ccc(Nc2ccccc2)cc1	33.7% (inactive)
CCOc1c(Cl)cc(CNC(C)C(O)c2ccccc2)cc1OC (stereo not given)	91.6% (inactive)

====

Readings of growth for the listed compounds
- Tested on: HL-60(TB) leukemia
- Protocol Description: NCI-60 one-dose screen, 48 h (100 = growth as untreated, 0 = no growth, -100 = all killed)
- Setup Conditions: 10 µM unless noted
This is part of a sample that, as a whole, favours compounds with a hit. Of some 83,000 tested, about 20% had one in any assay.

Compound	Assayed Target	Value Unit	growth
COc1ccc(C(=O)N2CCN(C(=O)c3cc(OC)c(OC)c(OC)c3)CC2)cc1OCCCCOc1cc2c(cc1OC)C(=O)N1CCC[C@H]1C=N2	HL-60(TB) leukemia	%	147
CCCCn1c(=O)[nH]c(N)c(C(c2ccc(F)cc2)c2c(N)[nH]c(=O)n(CCCC)c2=O)c1=O	HL-60(TB) leukemia	%	78.7
CCOC(=O)c1ccc(-c2ccc3cc(OC)ccc3c2)nc1C	HL-60(TB) leukemia	%	91.2
CC(=O)n1c2ccccc2c2ccccc21	HL-60(TB) leukemia	%	104
O=C1CCCN1C1CCN(Cc2cc3ccccc3[nH]c2=O)c2ccccc21 (stereo not given)	HL-60(TB) leukemia	%	95.6
COc1ccc2c3c(c4ccccc4cc13)C(=O)N(CCN(C)CCN)C2=O	HL-60(TB) leukemia	%	-58.1
N#Cc1nn(-c2ccccn2)c(N)c1C#N	HL-60(TB) leukemia	%	96.1
O=c1[nH]ccc2nc(N3CCC(O)CC3)nc(Nc3ccc(N4CCOCC4)cc3)c12	HL-60(TB) leukemia	%	18.9
O=C(Nc1cccnc1)c1ccc2ccc3ccc(C(=O)Nc4cccnc4)nc3c2n1	HL-60(TB) leukemia	%	37.1
Cc1ccccc1NC(=O)c1sc2nc3c(cc2c1N)CCCC3	HL-60(TB) leukemia	%	11.8
